target: HIS-TGFβR1 T204D (Homo sapiens (Human), UniProt P36897, T204D); assay: HTRF probe-displacement assay, HIS-TGFβR1 T204D; conditions: 1 hour at room temperature
Sequence (P36897 34-503 T204D): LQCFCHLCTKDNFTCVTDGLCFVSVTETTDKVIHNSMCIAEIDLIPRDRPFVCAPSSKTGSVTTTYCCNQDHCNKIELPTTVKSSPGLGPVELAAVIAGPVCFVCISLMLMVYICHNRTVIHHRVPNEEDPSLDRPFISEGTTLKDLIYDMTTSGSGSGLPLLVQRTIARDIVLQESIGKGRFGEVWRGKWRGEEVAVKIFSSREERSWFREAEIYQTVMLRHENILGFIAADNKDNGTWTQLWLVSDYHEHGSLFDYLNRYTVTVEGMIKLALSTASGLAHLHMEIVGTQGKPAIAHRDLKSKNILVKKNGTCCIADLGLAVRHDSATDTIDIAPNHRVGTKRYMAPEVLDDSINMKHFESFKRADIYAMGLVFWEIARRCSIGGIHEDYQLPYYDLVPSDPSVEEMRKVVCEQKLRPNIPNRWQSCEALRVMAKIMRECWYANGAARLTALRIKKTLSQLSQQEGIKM
pIC50: −log10 of the molar value.
measurement type: pIC50

1. Cc1cccc(-c2nc(Nc3ccncc3C(=O)NCCN3CCCC3)c3cccn3n2)n1 | 8.28

I. OC1CCCCC1NCc1ccn2nc(-c3ccccn3)nc(Nc3ccncc3F)c12 (stereo not shown)
II. CN1CCN(Cc2ccn3nc(-c4cccc(C(F)F)n4)nc(Nc4ccncc4F)c23)CC1
III. Cc1cccc(-c2nc(Nc3ccncc3C(=O)NC(C)(C)CO)c3cccn3n2)n1
Endpoint returns the given compounds ordered by ascending pIC50. Please respond with the labels ordered as the question requires.
III, II, I
(III: 7.47, II: 8.24, I: 8.96)

Data provenance is patent US10336761B2.
